Data credit: patent US12319655B2

- ASSAYED SYSTEM: A-Raf kinase (SEQ. ID No: 1) (Homo sapiens (Human), UniProt P10398, Y301D/Y302D)
- Sequence (P10398 other isoform, or with tags, fused parts or gaps Y301D (already in the parent)/Y302D (already in the parent)): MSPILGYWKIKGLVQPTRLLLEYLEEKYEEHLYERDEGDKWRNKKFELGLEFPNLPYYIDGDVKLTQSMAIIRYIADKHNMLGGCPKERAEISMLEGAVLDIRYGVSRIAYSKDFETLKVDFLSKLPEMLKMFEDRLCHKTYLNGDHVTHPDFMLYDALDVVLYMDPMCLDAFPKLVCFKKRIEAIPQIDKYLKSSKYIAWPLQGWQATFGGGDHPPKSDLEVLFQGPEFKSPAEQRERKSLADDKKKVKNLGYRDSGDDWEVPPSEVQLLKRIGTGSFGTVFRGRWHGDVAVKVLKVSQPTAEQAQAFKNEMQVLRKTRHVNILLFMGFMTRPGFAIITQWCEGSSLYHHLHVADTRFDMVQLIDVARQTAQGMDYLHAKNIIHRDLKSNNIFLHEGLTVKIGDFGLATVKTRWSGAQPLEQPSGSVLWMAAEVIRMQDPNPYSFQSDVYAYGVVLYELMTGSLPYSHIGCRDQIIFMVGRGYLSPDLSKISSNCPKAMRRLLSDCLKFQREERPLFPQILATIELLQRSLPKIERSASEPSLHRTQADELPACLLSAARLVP
- ASSAY TEXT: Biochemical Assay for A-Raf (1)
- EXPERIMENTAL SETUP: Table J, assay version (1); read-out: ARAF (1) IC50
What IC50 was measured for each of the following?

Task item: Give the reported IC50 for this molecule. CO[C@H]1CC[C@H](C(=O)Nc2ccc(C)c(-c3ccnc(-c4ccnc(NC(=O)C5CC5)c4)n3)c2)CC1 [Example 341]
Reply: 1000 to 10000 nM

Task item: Give the reported IC50 for this molecule. Cc1ccc(NC(=O)c2cccc(C(C)(C)C#N)c2)cc1-c1cccc(-c2cc(NC(=O)C3CC3)ncn2)c1 [Example 174]
Reply: 1000 to 10000 nM

Task item: Give the reported IC50 for this molecule. Cc1ccc(NC(=O)c2ccnc(C(C)(C)C#N)c2)cc1-c1cncc(-c2ccnc3c2CC(=O)N3)n1 [Example 43]
Reply: 1000 to 10000 nM

Task item: Give the reported IC50 for this molecule. CC(=O)Nc1cc(-c2ccnc(-c3cc(NC(=O)c4ccnc(C(C)(C)C#N)c4)ccc3C)n2)ccn1 [Example 103]
Reply: 500 to 1000 nM

Task item: Give the reported IC50 for this molecule. CNC(=O)c1cc(-c2cc(-c3cc(NC(=O)c4ccnc(C(C)(C)C#N)c4)ccc3C#N)ccn2)ccn1 [Example 247]
Reply: 1000 to 10000 nM

Task item: Give the reported IC50 for this molecule. CNC(=O)c1cc(-c2cncc(-c3cc(NC(=O)c4ccnc(C5CC5)c4)ccc3C)n2)ccn1 [Example 139]
Reply: 1000 to 10000 nM

Task item: Give the reported IC50 for this molecule. Cc1ncc(NC(=O)c2ccnc(C(C)(C)C#N)c2)cc1-c1cccc(-c2ncnc3c2CC(=O)N3)c1 [Example 110]
Reply: 1000 to 10000 nM

Task item: Give the reported IC50 for this molecule. Cc1ccc(NC(=O)c2ccnc(C(C)(C)C#N)c2)cc1-c1cncc(-c2cc(NC(=O)C3CC3)ncn2)c1 [Example 224]
Reply: 500 to 1000 nM

Task item: Give the reported IC50 for this molecule. COC(=O)Nc1cc(-c2cc(-c3cc(NC(=O)c4ccnc(C(F)F)c4)cnc3C)ccn2)ccn1 [Example 313]
Reply: 1000 to 10000 nM

Task item: Give the reported IC50 for this molecule. CNC(=O)c1cc(-c2ccnc(-c3cc(NC(=O)c4ccnc(C(C)(C)C#N)c4)ccc3C)n2)ccn1 [Example 177]
Reply: 1000 to 10000 nM

Task item: Give the reported IC50 for this molecule. Cc1ccc(NC(=O)c2ccnc(C(C)(C)C#N)c2)cc1-c1ccnc(-c2ccncc2)c1 [Example 55]
Reply: 1000 to 10000 nM

Task item: Give the reported IC50 for this molecule. COC(C)(C)c1cc(C(=O)Nc2ccc(C)c(-c3nccc(-c4ccnc(NC(=O)C5CC5)c4)n3)c2)ccn1 [Example 239]
Reply: 500 to 1000 nM

###

- ASSAYED SYSTEM: A-Raf kinase (SEQ. ID No: 1) (Homo sapiens (Human), UniProt P10398, Y301D/Y302D)
- ASSAY TEXT: Biochemical Assay for A-Raf (1)
- EXPERIMENTAL SETUP: Table J, biochemical assay (1); read-out: ARAF (1)
pIC50: −log10 of the molar value.
ATTRIBUTE MEASURED: pIC50

Task item: Give the reported pIC50 for this compound. COC(=O)Nc1cc(-c2cncc(-c3cc(NC(=O)c4ccnc(C(C)(C)F)c4)ccc3C)c2)ncn1 [Example 425]
Reply: 5.00 to 6.00

Task item: Give the reported pIC50 for this compound. CNC(=O)c1cc(-c2cnnc(-c3cc(NC(=O)CCC4(F)CC4)cnc3C)c2)ccn1 [Example 374]
Reply: 5.00 to 6.00

Task item: Give the reported pIC50 for this compound. Cc1ccc(NC(=O)c2ccnc(C3CC3)c2)cc1-c1cncc(-c2cc(NC(=O)C3CC3)ncn2)c1 [Example 396]
Reply: 6.30 to 7.00

Task item: Give the reported pIC50 for this compound. COC(=O)Nc1cc(-c2cnnc(-c3cc(NC(=O)c4ccnc(C(C)(C)C#N)c4)ccc3F)c2)ccn1 [Example 390]
Reply: 5.00 to 6.00

Task item: Give the reported pIC50 for this compound. Cc1ccc(NC(=O)c2ccnc(C(F)(F)F)c2)cc1-c1cncc(-c2cc(NC(=O)C3CC3)ncn2)c1 [Example 397]
Reply: 5.00 to 6.00

Task item: Give the reported pIC50 for this compound. CNC(=O)c1cc(-c2cc(-c3cc(NC(=O)c4ccnc(C(C)(C)C#N)c4)ccc3OC)ccn2)ccn1 [Example 437]
Reply: 5.00 to 6.00

Task item: Give the reported pIC50 for this compound. Cc1cc(F)c(NC(=O)c2ccnc(C(C)(C)F)c2)cc1-c1cncc(-c2ccnc(NC(=O)C3CC3)c2)c1 [Example 399]
Reply: 6.00 to 6.30

Task item: Give the reported pIC50 for this compound. Cc1ccc(NC(=O)c2ccnc(C(C)(C)F)c2)cc1-c1cc(-c2ccnc3[nH]ncc23)cnn1 [Example 400]
Reply: 5.00 to 6.00

Task item: Give the reported pIC50 for this compound. CNC(=O)c1cc(-c2cncc(-c3cc(NC(=O)c4ccnc(C(C)(C)F)c4)ccc3C)c2)ncn1 [Example 379]
Reply: 5.00 to 6.00

Task item: Give the reported pIC50 for this compound. Cc1ccc(NC(=O)[C@H]2CCO[C@H](C(C)C)C2)cc1-c1cc(-c2ccnc(NC(=O)C3CC3)c2)cnn1 [Example 389]
Reply: 5.00 to 6.00

Task item: Give the reported pIC50 for this compound. Cc1ccc(NC(=O)c2cc(C3CC3)n(C)n2)cc1-c1nccc(-c2ccnc(NC(=O)C3CC3)c2)n1 [Example 436]
Reply: 6.00 to 6.30

Task item: Give the reported pIC50 for this compound. CNC(=O)c1cc(-c2cncc(-c3cc(NC(=O)c4cnn(CC(F)(F)F)c4)ccc3C)c2)ncn1 [Example 382]
Reply: 5.00 to 6.00

Task item: Give the reported pIC50 for this compound. Cc1cc(F)c(NC(=O)c2ccnc(C(C)(C)F)c2)cc1-c1cncc(-c2cc(NC(=O)C3CC3)ncn2)c1 [Example 423]
Reply: 5.00 to 6.00

Task item: Give the reported pIC50 for this compound. Cc1ccc(NC(=O)c2ccnc(C(C)C)c2)cc1-c1cncc(-c2cc(NC(=O)C3CC3)ncn2)c1 [Example 434]
Reply: 6.30 to 7.00

Task item: Give the reported pIC50 for this compound. Cc1ccc(NC(=O)c2ccnc(C(C)(C)C#N)c2)cc1-c1cncc(-c2cc(N)ncn2)c1 [Example 422]
Reply: 5.00 to 6.00
